- tested.on: PI3Kγ (Homo sapiens, UniProt P48736, Q459R)
- Construct: Constructs lacking the N-terminal 144 aa; His tag (C); construct from the Roger Williams lab (MRC LMB)
- Sequence (P48736 with tags, fused parts or gaps Q459R): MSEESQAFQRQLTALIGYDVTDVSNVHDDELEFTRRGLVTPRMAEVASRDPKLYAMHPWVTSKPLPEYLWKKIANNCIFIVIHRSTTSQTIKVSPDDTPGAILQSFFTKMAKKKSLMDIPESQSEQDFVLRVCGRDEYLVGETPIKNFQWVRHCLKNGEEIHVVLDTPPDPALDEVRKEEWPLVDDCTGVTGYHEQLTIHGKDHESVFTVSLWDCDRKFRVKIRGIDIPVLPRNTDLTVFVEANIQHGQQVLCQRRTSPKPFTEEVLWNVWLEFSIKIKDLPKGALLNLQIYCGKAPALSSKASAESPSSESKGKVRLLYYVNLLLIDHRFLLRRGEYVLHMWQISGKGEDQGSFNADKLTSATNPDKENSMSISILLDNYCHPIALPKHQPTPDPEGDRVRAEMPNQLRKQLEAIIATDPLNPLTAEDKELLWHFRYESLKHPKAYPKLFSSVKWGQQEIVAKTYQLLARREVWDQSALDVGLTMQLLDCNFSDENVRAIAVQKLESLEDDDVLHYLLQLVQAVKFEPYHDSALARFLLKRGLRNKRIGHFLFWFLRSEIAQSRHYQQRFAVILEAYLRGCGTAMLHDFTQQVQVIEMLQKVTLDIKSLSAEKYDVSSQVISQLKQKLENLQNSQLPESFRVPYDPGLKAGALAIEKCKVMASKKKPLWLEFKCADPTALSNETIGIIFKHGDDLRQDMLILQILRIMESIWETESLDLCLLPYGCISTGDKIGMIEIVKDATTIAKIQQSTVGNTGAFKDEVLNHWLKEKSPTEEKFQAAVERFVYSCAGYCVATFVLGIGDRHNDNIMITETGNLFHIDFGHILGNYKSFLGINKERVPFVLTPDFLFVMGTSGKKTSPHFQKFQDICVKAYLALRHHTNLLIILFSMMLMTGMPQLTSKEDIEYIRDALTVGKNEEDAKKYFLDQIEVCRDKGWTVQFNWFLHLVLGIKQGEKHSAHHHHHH
- test.name: PI3K KinaseGlo assay, PI3Kgamma
- run.conditions: 150 nM enzyme, 1 μM ATP, 90 mins
pIC50: −log10 of the molar value.
measured.metric: pIC50

Answered examples (5):
> print(dat)
                                smiles.code  value.measured
1  CCN(CC)c1ncc2c(n1)-c1sc(NC(=O)N3CC[C@@H]4C[C@@]43C(N)=O)nc1CC2            6.91
2  CC(C)(C)c1ncc2c(n1)-c1sc(NC(=O)N3CC[C@H]3C(N)=O)nc1CC2            6.91
3  CCN(CC)c1ncc2c(n1)-c1sc(NC(=O)N3C[C@@H](N(C)C)C[C@H]3C(N)=O)nc1CC2            6.58
4  CN(Cc1cccc(F)c1)C[C@@]1(C(N)=O)CCCN1C(=O)Nc1nc2c(s1)-c1nc(C(C)(C)C)ncc1CC2            6.55
5  CCN(CC)c1ncc2c(n1)-c1sc(NC(=O)N3CCC[C@@]3(C)C(N)=O)nc1CC2            6.75

(A) CCN(CC)c1ncc2c(n1)-c1sc(NC(=O)N3CCC[C@H]3C(N)=O)nc1CC2
(B) CCN(CC)c1ncc2c(n1)-c1sc(NC(=O)N3C[C@H](O)C[C@H]3C(N)=O)nc1CC2
(C) CN(C)[C@@H]1C[C@@H](C(N)=O)N(C(=O)Nc2nc3c(s2)-c2nc(C(C)(C)C)sc2CC3)C1
Task item: Provide the items ranked by increasing pIC50. Put the labels in the requested order and list them out.
Reply: C, A, B

----------
Here's what we have: IC50 numbers for PI3Kδ (Homo sapiens, UniProt O00329).
measured.metric: IC50 (nM)

Recorded IC50, per entry:
> print(dat)
                                   molecule  value.measured
1  CC(C)(C)c1ncc2c(n1)-c1sc(NC(=O)N3CC[C@H]3C(N)=O)nc1CC2 [Example 25]              45
2  CN(C)C[C@@H]1CCN(C(=O)Nc2nc3c(s2)-c2cc(C(C)(C)C)ncc2OC3)[C@@H]1C(N)=O [Example 47]            1620

(A) CC(C)(CF)c1nc2c(s1)CCc1nc(NC(=O)N3CCC[C@H]3C(N)=O)sc1-2 [Example 32]
(B) CCN(CC)c1ncc2c(n1)-c1sc(NC(=O)N3CC[C@H](C)[C@H]3C(N)=O)nc1CC2 [Example 2]
Task item: Field: entry with larger IC50 (options A / B ). Write down the label of the entry you select.
Reply: A
(A: 43 nM, B: 30 nM)

----------
- tested.on: PI3Kα (Homo sapiens, UniProt P42336)
- Sequence (P42336 with tags, fused parts or gaps): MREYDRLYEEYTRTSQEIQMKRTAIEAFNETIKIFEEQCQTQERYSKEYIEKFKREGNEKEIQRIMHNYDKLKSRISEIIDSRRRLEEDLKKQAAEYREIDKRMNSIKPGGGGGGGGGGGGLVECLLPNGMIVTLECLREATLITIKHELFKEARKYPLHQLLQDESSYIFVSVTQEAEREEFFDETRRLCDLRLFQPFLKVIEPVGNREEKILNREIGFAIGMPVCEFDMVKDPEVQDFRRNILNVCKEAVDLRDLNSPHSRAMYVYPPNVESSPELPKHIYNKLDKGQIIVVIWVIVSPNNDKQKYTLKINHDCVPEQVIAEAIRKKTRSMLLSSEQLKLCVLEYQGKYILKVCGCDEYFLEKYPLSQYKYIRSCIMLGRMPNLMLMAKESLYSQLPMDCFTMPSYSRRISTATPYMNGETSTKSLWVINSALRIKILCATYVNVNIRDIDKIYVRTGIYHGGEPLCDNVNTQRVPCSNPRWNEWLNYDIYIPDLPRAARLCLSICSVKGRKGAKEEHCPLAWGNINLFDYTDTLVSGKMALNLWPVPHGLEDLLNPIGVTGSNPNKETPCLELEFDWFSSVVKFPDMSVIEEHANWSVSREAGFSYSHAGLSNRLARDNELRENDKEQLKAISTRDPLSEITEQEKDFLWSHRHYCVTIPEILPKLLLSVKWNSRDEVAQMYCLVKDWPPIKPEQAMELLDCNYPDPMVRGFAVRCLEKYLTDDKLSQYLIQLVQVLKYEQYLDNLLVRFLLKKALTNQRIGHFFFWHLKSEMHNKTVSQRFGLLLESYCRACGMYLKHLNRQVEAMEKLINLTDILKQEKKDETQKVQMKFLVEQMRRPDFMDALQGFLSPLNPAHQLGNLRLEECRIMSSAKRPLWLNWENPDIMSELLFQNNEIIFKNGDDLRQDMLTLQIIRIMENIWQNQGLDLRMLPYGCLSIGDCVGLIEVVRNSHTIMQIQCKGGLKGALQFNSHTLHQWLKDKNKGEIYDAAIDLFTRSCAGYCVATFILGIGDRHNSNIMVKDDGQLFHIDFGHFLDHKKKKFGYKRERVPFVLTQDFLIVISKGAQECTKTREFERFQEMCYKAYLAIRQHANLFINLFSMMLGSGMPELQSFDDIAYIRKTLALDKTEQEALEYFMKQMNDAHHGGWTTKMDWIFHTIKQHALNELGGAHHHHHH
pIC50: −log10 of the molar value.
measured.metric: pIC50

> print(dat)
                                smiles.code  value.measured
1  CCN(CC)c1ncc2c(n1)-c1sc(NC(=O)N3C[C@@H](O)C[C@H]3C(N)=O)nc1CC2            8.19
2  CCN(CC)c1ncc2c(n1)-c1sc(NC(=O)N3CCC[C@@]3(CO)C(N)=O)nc1CC2            8.02
3  CC(C)(C)c1nc2c(s1)CCc1nc(NC(=O)N3CC[C@H]3C(N)=O)sc1-2            7.64
4  CCN(CC)c1ncc2c(n1)-c1sc(NC(=O)N3C[C@H](F)C[C@H]3C(N)=O)nc1CC2            8.26
5  C[C@@H]1CCN(C(=O)Nc2nc3c(s2)-c2cc(C(C)(C)C)ncc2OC3)[C@@H]1C(N)=O            8.26

(A) CCN(CC)c1ncc2c(n1)-c1sc(NC(=O)N3CCC[C@H]3C(N)=O)nc1CC2
(B) CN(Cc1cccc(F)c1)C[C@@]1(C(N)=O)CCCN1C(=O)Nc1nc2c(s1)-c1nc(C(C)(C)C)ncc1CC2
Task item: Which value of pIC50 is numerically greater: that of A or that of B ? Answer = label.
Reply: A

(a) C[C@@H]1CCN(C(=O)Nc2nc3c(s2)-c2cc(C(C)(C)C(F)(F)F)ncc2OC3)[C@@H]1C(N)=O
(b) CN(C)[C@@H]1C[C@@H](C(N)=O)N(C(=O)Nc2nc3c(s2)-c2nc(C(C)(C)C)sc2CC3)C1
Task item: // pick larger pIC50 from pair: a vs b Please reply using the label of the selected record.
Reply: a
